The measurements presented in this section are drawn from patent US12582654B2.

Listing of recorded GI50 by entry.
target_system: Ba/F3 ETV6-FGFR4 cells (Homo sapiens, UniProt P22455)
Construct: fused on or other part: N-terminal part of ETV6 (TEL), the oligomerising partner that makes the FGFR4 kinase constitutively active; P41212 (Transcription factor ETV6)
Sequence (P22455 whole entry, change not shown, the tested form may be a part): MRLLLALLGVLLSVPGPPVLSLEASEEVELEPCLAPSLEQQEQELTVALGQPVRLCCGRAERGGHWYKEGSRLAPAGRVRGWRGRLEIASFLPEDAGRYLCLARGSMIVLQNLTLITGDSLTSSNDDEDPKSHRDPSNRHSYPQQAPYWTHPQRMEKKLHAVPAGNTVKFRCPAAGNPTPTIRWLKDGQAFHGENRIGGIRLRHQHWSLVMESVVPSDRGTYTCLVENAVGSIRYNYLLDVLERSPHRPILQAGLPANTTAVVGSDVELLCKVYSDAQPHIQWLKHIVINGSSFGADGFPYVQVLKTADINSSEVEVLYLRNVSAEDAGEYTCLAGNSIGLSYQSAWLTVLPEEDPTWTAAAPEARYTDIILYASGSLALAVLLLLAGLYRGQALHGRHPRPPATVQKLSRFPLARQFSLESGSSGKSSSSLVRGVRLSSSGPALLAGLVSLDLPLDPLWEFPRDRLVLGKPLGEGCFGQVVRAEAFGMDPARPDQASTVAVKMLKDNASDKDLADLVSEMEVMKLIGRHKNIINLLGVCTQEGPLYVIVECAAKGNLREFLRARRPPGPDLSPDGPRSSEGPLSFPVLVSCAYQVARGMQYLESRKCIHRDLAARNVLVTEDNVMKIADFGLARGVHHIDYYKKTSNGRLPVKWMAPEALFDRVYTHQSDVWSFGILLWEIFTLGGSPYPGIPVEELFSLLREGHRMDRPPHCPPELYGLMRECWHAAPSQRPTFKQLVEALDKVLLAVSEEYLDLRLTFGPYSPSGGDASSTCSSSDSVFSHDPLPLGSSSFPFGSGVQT
protocol_details: Inhibition of cell proliferation (CCK-8), Ba/F3 ETV6-FGFR4 cells
Type: cell-based
conditions_used: 72 hours of incubation, read-out: Ba/F3 ETV6-FGFR4 IC50
test_readout: GI50

>>> recorded_measurement("C=CC(=O)Nc1cc(N2CCC(N3CCCCC3)CC2)ccc1Nc1ncc(C#N)c(Nc2ccccc2OC(C)C)n1")
"≤ 10 nM"
>>> recorded_measurement("C=CC(=O)Nc1cc(N2CCC(N3CCC(O)CC3)CC2)ccc1Nc1ncc(C#N)c(Nc2ccccc2OC(C)C)n1")
"≤ 10 nM"
>>> recorded_measurement("C=CC(=O)Nc1cc(N2CCC(N(C)C)CC2)c(F)cc1Nc1ncc(C#N)c(Nc2ccccc2OC(C)C)n1")
"≤ 10 nM"
>>> recorded_measurement("C=CC(=O)Nc1cc(N2CCC(N3CCN(C)CC3=O)CC2)ccc1Nc1ncc(C#N)c(Nc2ccccc2OC(C)C)n1")
"≤ 10 nM"
>>> recorded_measurement("C=CC(=O)Nc1cc(N2CCN(CC)CC2)ccc1Nc1ncc(C#N)c(Nc2ccc(C3CC3)cc2OC(C)C)n1")
"10 to 50 nM"
